src = patent US20150329558A1

experiment: Microsomal stability assay, human; assay type: in vitro ADME; conditions: metabolic stability, human liver microsomes 0.5 mg/mL, substrate 3 uM
assayReadout: MS Human THalf (min)

Below are worked cases with known answers.
substanceSmiles	readoutValue
O=C(c1cccnn1)N1CCc2ccc(-c3ccc(C(F)(F)F)cc3)cc2C1	257
O=c1c2cc(-c3ccc(OC(F)(F)F)cc3)ccc2nnn1Cc1noc(-c2ccccn2)n1	329

(P) O=C(c1ncccc1F)N1CCc2ccc(-c3ccc(C(F)(F)F)cc3)cc2C1
(Q) O=C1c2cc(-c3ccc(OC(F)(F)F)cc3)ccc2SCN1Cc1ncccc1F
(R) O=c1c2cc(-c3ccc(OC(F)(F)F)cc3)ccc2cnn1CCOc1ncccn1
Please list the entries, largest MS Human THalf first. Quick reminder: the answer is the labels in the order asked.
P, R, Q
(P: 320 min, R: 170 min, Q: 70 min)
